Hello, the source for this data is patent US10647713B2, in case you need it.

# measured-on: human TYK2 (JH2domain-pseudokinase) (Homo sapiens (Human), UniProt P29597)
# Sequence (P29597 556-888): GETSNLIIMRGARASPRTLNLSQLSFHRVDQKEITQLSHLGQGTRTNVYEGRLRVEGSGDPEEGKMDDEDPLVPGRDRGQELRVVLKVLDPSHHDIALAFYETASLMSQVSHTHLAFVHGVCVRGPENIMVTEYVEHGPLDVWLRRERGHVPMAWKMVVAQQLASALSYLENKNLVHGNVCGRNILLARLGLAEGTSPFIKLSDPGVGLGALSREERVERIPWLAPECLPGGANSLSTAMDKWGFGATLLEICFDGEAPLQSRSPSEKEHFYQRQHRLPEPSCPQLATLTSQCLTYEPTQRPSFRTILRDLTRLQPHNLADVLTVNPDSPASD
# method-notes: TYK2 JH2 Domain Binding Assay (KINOMEscan, DiscoveRx)
# test-conditions: 11-point dilution, duplicate
property: Kd

molecule	Kd
COc1c(Nc2cc(Nc3ccc(C)cn3)nc3[nH]c(C)nc23)cccc1-c1nnn(C)n1 [I-101]	1 to 10 nM

Then there is this molecule:
Query block: I'd like to know its Kd. The molecule in question is CCOc1ccc(Nc2cc(Nc3ccc(F)cc3S(C)(=O)=O)c3nc(C)[nH]c3n2)nc1C#N [I-608]
Result block: 0.1 to 0.5 nM

---

# measured-on: human TYK2 (JH2domain-pseudokinase) (Homo sapiens (Human))
# method-notes: TYK2 JH2 Domain Binding Assay (KINOMEscan, DiscoveRx)
# test-conditions: 11-point dilution, duplicate
property: Kd

compound	property	reported-measurement
Cc1cnc(-c2ccc(Nc3cc(NC(=O)C4CC4)nc4[nH]c(C(F)F)nc34)c(S(C)(=O)=O)c2)n1C [I-451]	Kd	100 to 500 pM

Query block: Find the recorded Kd belonging to Cc1nc2c(Nc3ccc(C4CCCOC4)cc3S(C)(=O)=O)cc(NC(=O)C3CC3)nc2[nH]1 (stereo not drawn) [I-390] and report it.
Result block: 100 to 500 pM

Query block: Then what about the compound Cc1nc2c(Nc3ccccc3S(C)(=O)=O)cc(Nc3ccc4c(n3)CCOC4)nc2[nH]1 [I-532] ?
Result block: < 100 pM

Query block: Further, for Cc1nc2c(Nc3ccc(-c4nn(C)cc4C)cc3S(C)(=O)=O)cc(NC(=O)[C@H]3CC3(C)C)nc2[nH]1 [I-479] ?
Result block: 1000 to 10000 pM

Query block: Let us now turn to Cc1nc2c(Nc3ccc(F)cc3S(C)(=O)=O)cc(NC(=O)C3CC3)nc2[nH]1 [I-443]
Result block: 100 to 500 pM

Query block: How about CO[C@H](C)c1ccc(Nc2cc(NC(=O)C3CC3)nc3[nH]c(C(F)F)nc23)c(S(C)(=O)=O)c1 [I-454] ?
Result block: 500 to 1000 pM
